biological target: Acetylcholinesterase (Electrophorus electricus, UniProt O42275)
Sequence (O42275 whole entry): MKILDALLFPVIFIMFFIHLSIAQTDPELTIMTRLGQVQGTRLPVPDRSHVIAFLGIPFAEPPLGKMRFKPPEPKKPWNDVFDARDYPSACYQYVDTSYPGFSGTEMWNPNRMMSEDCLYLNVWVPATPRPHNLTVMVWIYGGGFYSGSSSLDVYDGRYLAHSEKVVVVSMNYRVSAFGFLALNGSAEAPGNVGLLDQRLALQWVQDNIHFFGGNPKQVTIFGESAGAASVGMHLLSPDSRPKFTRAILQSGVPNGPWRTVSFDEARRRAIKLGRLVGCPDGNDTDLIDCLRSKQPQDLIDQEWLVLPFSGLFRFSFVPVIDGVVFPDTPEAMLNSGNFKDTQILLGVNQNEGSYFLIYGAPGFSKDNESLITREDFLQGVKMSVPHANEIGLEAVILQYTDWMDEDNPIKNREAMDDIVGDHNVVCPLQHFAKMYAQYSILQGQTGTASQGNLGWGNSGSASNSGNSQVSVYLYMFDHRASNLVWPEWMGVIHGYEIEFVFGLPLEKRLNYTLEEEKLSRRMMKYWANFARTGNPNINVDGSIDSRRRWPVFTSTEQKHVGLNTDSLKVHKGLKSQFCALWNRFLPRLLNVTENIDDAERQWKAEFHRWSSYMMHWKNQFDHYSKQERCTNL
readout.name: pKi
// pKi: -log10(molar conc.)

Query: Recorded pKi for COC(=O)C1=C(C)Oc2nc3c(c(N)c2C1c1cc2ccc(OC)cc2nc1Cl)CCCC3 (stereo unspecified) with Acetylcholinesterase (Electrophorus electricus, UniProt O42275), please?
Reply: 7.85

* * *

Listed here: items and their measured viability at 24 h, 5 µM.
test: in vitro; details: human, SH-SY5Y cells
Description: Neurotoxicity in human SH-SY5Y cells assessed as cell viability at 5 uM after 24 hrs by XTT assay relative to control
Output should be the measured figure followed by the unit it is expressed in.

molecule: CCOC(=O)C1=C(C)Oc2nc3c(c(N)c2C1c1cc2ccccc2nc1Cl)CCCC3 (stereo not given)
readout.value: 99.7%

molecule: CCOC(=O)C1=C(C)Oc2nc3c(c(N)c2C1c1cc2cccc(OC)c2nc1Cl)CCCC3 (stereo not given)
readout.value: 100%

molecule: CCOC(=O)C1=C(C)Oc2nc3c(c(N)c2C1c1cc2ccc(OC)cc2nc1Cl)CCC3 (stereo not given)
readout.value: 119%

molecule: COC(=O)C1=C(C)Oc2nc3c(c(N)c2C1c1cc2ccc(OC)cc2nc1Cl)CCCC3 (stereo not given)
readout.value: 132%

Next, consider the following molecule.
Query: I would be grateful if you could share the reported viability at 24 h, 5 µM for COC(=O)C1=C(C)Oc2nc3c(c(N)c2C1c1cc2ccc(OC)cc2nc1Cl)CCC3 (stereo not given) .
Reply: 114%

* * *

assay: in vitro; conditions: human, SH-SY5Y cells
Description: Neurotoxicity in human SH-SY5Y cells assessed as cell viability at 50 uM after 24 hrs by XTT assay relative to control
The following molecules are listed with their measured viability at 24 h, 50 µM values.
Write down the numeric answer in % and omit the unit.

Use the examples below as a reference point.
molecule: COC(=O)C1=C(C)Oc2nc3c(c(N)c2C1c1cc2ccc(OC)cc2nc1Cl)CCCC3 (stereo not drawn)
readout.name: viability at 24 h, 50 µM
readout.value: 82.5
--
molecule: COC(=O)C1=C(C)Oc2nc3c(c(N)c2C1c1cc2ccc(OC)cc2nc1Cl)CCC3 (stereo not drawn)
readout.name: viability at 24 h, 50 µM
readout.value: 93.2
--
molecule: COC(=O)C1=C(C)Oc2nc3c(c(N)c2C1c1cc2ccc(OC)cc2nc1Cl)CCCCC3 (stereo not drawn)
readout.name: viability at 24 h, 50 µM
readout.value: 75.1
--
molecule: COc1ccc2cc(C3C4=C(CC(C)(C)CC4=O)Oc4nc5c(c(N)c43)CCCC5)c(Cl)nc2c1 (stereo not drawn)
readout.name: viability at 24 h, 50 µM
readout.value: 90.6
--
molecule: CCOC(=O)C1=C(C)Oc2nc3c(c(N)c2C1c1cc2ccc(OC)cc2nc1Cl)CCCCC3 (stereo not drawn)
readout.name: viability at 24 h, 50 µM
readout.value: 106

Query: What does the data say about its viability at 24 h, 50 µM? Entry: CCOC(=O)C1=C(C)Oc2nc3c(c(N)c2C1c1cc2ccc(OC)cc2nc1Cl)CCC3 (stereo not drawn)
Reply: 112

Query: Recorded viability at 24 h, 50 µM of CCOC(=O)C1=C(C)Oc2nc3c(c(N)c2C1c1cc2ccccc2nc1Cl)CCCC3 (stereo not drawn) , please.
Reply: 93.6

Query: Entry COc1ccc2cc(C3C4=C(CC(C)(C)CC4=O)Oc4nc5c(c(N)c43)CCCCC5)c(Cl)nc2c1 (stereo not drawn) has what viability at 24 h, 50 µM?
Reply: 103

Query: # lookup: viability at 24 h, 50 µM of CCOC(=O)C1=C(C)Oc2nc3c(c(N)c2C1c1cc2ccc(OC)cc2nc1Cl)CCCC3 (stereo not drawn)
Reply: 129

Query: Fill blank: measured viability at 24 h, 50 µM of the molecule CCOC(=O)C1=C(C)Oc2nc3c(c(N)c2C1c1cc2cc(OC)ccc2nc1Cl)CCCC3 (stereo not drawn) is ____.
Reply: 68.5

* * *

assay: in vitro; conditions: human, SH-SY5Y cells
Description: Neurotoxicity in human SH-SY5Y cells assessed as cell viability at 1 uM after 24 hrs by XTT assay relative to control
readout.name: viability at 24 h, 1 µM (%)
Express it in %; write the number only.

compound: COC(=O)C1=C(C)Oc2nc3c(c(N)c2C1c1cc2ccc(OC)cc2nc1Cl)CCCC3 (stereo not drawn)
unit.abbreviation: %
viability at 24 h, 1 µM: 105
//
compound: CCOC(=O)C1=C(C)Oc2nc3c(c(N)c2C1c1cc2ccccc2nc1Cl)CCCC3 (stereo not drawn)
unit.abbreviation: %
viability at 24 h, 1 µM: 104
//
compound: CCOC(=O)C1=C(C)Oc2nc3c(c(N)c2C1c1cc2ccc(OC)cc2nc1Cl)CCC3 (stereo not drawn)
unit.abbreviation: %
viability at 24 h, 1 µM: 135
//
compound: CCOC(=O)C1=C(C)Oc2nc3c(c(N)c2C1c1cc2ccc(OC)cc2nc1Cl)CCCCC3 (stereo not drawn)
unit.abbreviation: %
viability at 24 h, 1 µM: 99

Now look at this entry.
Query: Given CCOC(=O)C1=C(C)Oc2nc3c(c(N)c2C1c1cc2ccc(OC)cc2nc1Cl)CCCC3 (stereo not drawn) , state its recorded viability at 24 h, 1 µM.
Reply: 130

* * *

tested on: SH-SY5Y; test: Neuroprotective activity in human SH-SY5Y cells assessed as reversal of 20 nM okadaic acid-induced cell death at 1 to 10 uM after 24 hrs by XTT assay; type: functional, cell-based
Active and inactive are the calls of the source. No cut-off for these calls is given here.
I would appreciate it if you answered using one of these outcomes: active, inactive

Worked set:
compound: COC(=O)C1=C(C)Oc2nc3c(c(N)c2C1c1cc2ccc(OC)cc2nc1Cl)CCCC3 (centres undefined)
label: active

compound: CCOC(=O)C1=C(C)Oc2nc3c(c(N)c2C1c1cc2cc(OC)ccc2nc1Cl)CCCC3 (centres undefined)
label: inactive

compound: CCOC(=O)C1=C(C)Oc2nc3c(c(N)c2C1c1cc2ccc(OC)cc2nc1Cl)CCC3 (centres undefined)
label: active

compound: CCOC(=O)C1=C(C)Oc2nc3c(c(N)c2C1c1cc2cccc(OC)c2nc1Cl)CCCC3 (centres undefined)
label: active

compound: COC(=O)C1=C(C)Oc2nc3c(c(N)c2C1c1cc2ccc(OC)cc2nc1Cl)CCCCC3 (centres undefined)
label: active

compound: COc1ccc2cc(C3C4=C(CC(C)(C)CC4=O)Oc4nc5c(c(N)c43)CCC5)c(Cl)nc2c1 (centres undefined)
label: inactive

compound: CCOC(=O)C1=C(C)Oc2nc3c(c(N)c2C1c1cc2ccc(OC)cc2nc1Cl)CCCCC3 (centres undefined)
label: inactive

compound: COC(=O)C1=C(C)Oc2nc3c(c(N)c2C1c1cc2ccc(OC)cc2nc1Cl)CCC3 (centres undefined)
label: active

Attention now shifts to the item below.
Query: Recorded test outcome, item CCOC(=O)C1=C(C)Oc2nc3c(c(N)c2C1c1cc2cc(C)ccc2nc1Cl)CCCC3 (centres undefined)
Reply: active

* * *

assay: in vitro; conditions: human, SH-SY5Y cells
Description: Neurotoxicity in human SH-SY5Y cells assessed as cell viability at 25 uM after 24 hrs by XTT assay relative to control
readout.name: viability at 24 h, 25 µM (%)
Number only, in %; omit the unit.

// known answers, use as guide
molecule: COc1ccc2cc(C3C4=C(CC(C)(C)CC4=O)Oc4nc5c(c(N)c43)CCCC5)c(Cl)nc2c1 (stereo not drawn)
unit.abbreviation: %
viability at 24 h, 25 µM: 113
//
molecule: COC(=O)C1=C(C)Oc2nc3c(c(N)c2C1c1cc2ccc(OC)cc2nc1Cl)CCC3 (stereo not drawn)
unit.abbreviation: %
viability at 24 h, 25 µM: 118
//
molecule: CCOC(=O)C1=C(C)Oc2nc3c(c(N)c2C1c1cc2ccc(OC)cc2nc1Cl)CCCCC3 (stereo not drawn)
unit.abbreviation: %
viability at 24 h, 25 µM: 109

Query: So what does the record say about viability at 24 h, 25 µM for COC(=O)C1=C(C)Oc2nc3c(c(N)c2C1c1cc2ccc(OC)cc2nc1Cl)CCCC3 (stereo not drawn) ?
Reply: 133

Query: Which value of viability at 24 h, 25 µM has been reported for CCOC(=O)C1=C(C)Oc2nc3c(c(N)c2C1c1cc2ccc(OC)cc2nc1Cl)CCC3 (stereo not drawn) in the records?
Reply: 106

Query: Tell me the measured viability at 24 h, 25 µM of CCOC(=O)C1=C(C)Oc2nc3c(c(N)c2C1c1cc2cc(C)ccc2nc1Cl)CCCC3 (stereo not drawn) , please.
Reply: 112

Query: Could you tell me which viability at 24 h, 25 µM is on file for CCOC(=O)C1=C(C)Oc2nc3c(c(N)c2C1c1cc2ccccc2nc1Cl)CCCC3 (stereo not drawn) ?
Reply: 95.5

Query: Can you share its viability at 24 h, 25 µM? I mean this molecule: CCOC(=O)C1=C(C)Oc2nc3c(c(N)c2C1c1cc2ccc(OC)cc2nc1Cl)CCCC3 (stereo not drawn)
Reply: 123

* * *

assay: in vitro; details: human, HepG2 cells
Description: Hepatotoxicity in human HepG2 cells assessed as reduction in cell viability by MTT assay
Listed compounds paired with reported pEC50
Keep in mind that pEC50 stands for -log10 of concentration in molar terms.

Sample answers from the record:
compound: COC(=O)C1=C(C)Oc2nc3c(c(N)c2C1c1cc2ccc(OC)cc2nc1Cl)CCCC3 (stereo not given)
readout.name: pEC50
readout.value: 3.21
//
compound: CCOC(=O)C1=C(C)Oc2nc3c(c(N)c2C1c1cc2ccc(OC)cc2nc1Cl)CCCCC3 (stereo not given)
readout.name: pEC50
readout.value: 3.18
//
compound: COc1ccc2cc(C3C4=C(CC(C)(C)CC4=O)Oc4nc5c(c(N)c43)CCCC5)c(Cl)nc2c1 (stereo not given)
readout.name: pEC50
readout.value: 3.04

Query: What pEC50 value was documented for this compound, COC(=O)C1=C(C)Oc2nc3c(c(N)c2C1c1cc2ccc(OC)cc2nc1Cl)CCC3 (stereo not given) ?
Reply: 3.27

Query: pEC50; subject: CCOC(=O)C1=C(C)Oc2nc3c(c(N)c2C1c1cc2ccc(OC)cc2nc1Cl)CCC3 (stereo not given)
Reply: 3.03
